System: U251 CNS
test-name: NCI tumour cell line growth inhibition, 48 h
Let's look at some compounds and their measured TGI.
measurement-name: TGI

• Cc1ccc(Cc2cnc(NC(=O)/C=C/c3cccc(C)c3)s2)cc1 = 4.97 µM
• CC(=O)OC1CCn2nnc(CO)c21 (stereo not drawn) = > 100 µM
• CN(C)CCCNc1ccc2c(=O)n(CCN(C)C)c(=O)n3c4ccccc4c(=O)c1c23 = 2.15 µM
• O=C1O[C@H](c2ccccc2)[C@@H]2CC3(CCN12)OCCO3 = > 100 µM
• COc1cc(C2SCC(=O)N2c2ccc(-n3c(-c4ccccc4)nc4ccccc4c3=O)cc2)cc(OC)c1OC (stereo not drawn) = > 100 µM
• COc1ccc(C2SCC(=O)N2NC(=O)c2ccncc2)cc1F (stereo not drawn) = > 100 µM
• COc1ccc(-c2cc(-c3ccc(Cl)cc3)nc(SCCCC(=O)NO)n2)cc1 = > 22.5 µM
• C=C1C(=O)OC2C1CCC(C)C1C=CC(=O)C12C (stereo not drawn) = 29.5 µM
• COc1ccc2cc3[nH]c(=O)cc(O)c3cc2c1OC = > 100 µM
• CCOC(=O)NC1C2CC(=O)OC(O2)C1OC(C)=O (stereo not drawn) = > 100 µM
• O=C1C=CC(=O)C12CCc1ccccc12 = > 100 µM
• CC(C)(C)OCC1NC(=O)[C@@H]2Cc3c([nH]c4ccccc34)C(c3ccccc3)N2C1=O (stereo partly drawn) = > 50 µM
• CN(C)CCCn1c(Cc2ccc(Cl)cc2)nc2cc(C(F)(F)F)ccc21 = 28.6 µM
• COc1cc(S(=O)(=O)Nc2nc(-c3ccc(N4C(=O)/C(=C/C=C/c5ccccc5)N=C4c4ccccc4)cc3)cs2)ccc1Cl = > 100 µM
• Nc1ccc2c(=O)cc(-c3cccs3)[nH]c2n1 = > 45.6 µM
• O=C1c2ccccc2-c2oc(=O)c3ccccc3c21 = > 100 µM
• COc1ccc2c3c([nH]c2c1[N+](=O)[O-])C(C)N(Cc1ccc([N+](=O)[O-])cc1)CC3 (stereo not drawn) = 46.9 µM
• C#CC1(OC(C)=O)CCC2C3CC=C4C=C(OC(C)=O)CCC4(C)C3CCC21C (stereo not drawn) = 38.9 µM

---

System: MDA-MB-231 breast
test-name: NCI tumour cell line growth inhibition, 48 h; in the data active = GI50 below about 0.43 µM; inactive = the rest
Outcomes: T (active), F (inactive)

• COc1ccc(-c2cc(-c3ccc(Cl)cc3)nc(SCCCC(=O)NO)n2)cc1 = F
• Cc1cc(O)cc2c1[C@]1(C)CCC3C(C)(C)CCC[C@]3(C)[C@H]1C2 (some centres not stated) = F
• CS(=O)(=O)CCNCc1ccc(-c2ccc3ncnc(Nc4ccc(OCc5ccccc5)c(Br)c4)c3c2)o1 = F
• CCCN(CCC)c1ccc(/C=C/c2ccc3cc(OCC)ccc3n2)cc1 = F
• CC1=C(C(=O)Nc2ccc(Cl)c(Cl)c2)C(c2cccc(Cl)c2)NC(=O)N1 (configuration not stated) = F
• NC1CCC(Nc2nc(NCc3ccc(-c4ccccc4O)nc3)c3ncn(C4CCCC4)c3n2)CC1 (configuration not stated) = T
• CC(=O)N1C/C(=C/c2ccc(Cl)cc2)C(=O)/C(=C/c2ccc(Cl)cc2)C1 = F

---

Tested on: M14 melanoma
test-name: NCI tumour cell line growth inhibition, 48 h; in the data active means GI50 below about 0.43 µM; inactive means the rest
Outcomes: 1.0 (active), 0.0 (inactive)

- COc1ccc(-c2oc(=O)ccc2-c2cc(OC)c(OC)c(OC)c2)cc1O: 0.0
- CC(=O)N1C/C(=C/c2ccc(Cl)cc2)C(=O)/C(=C/c2ccc(Cl)cc2)C1: 0.0
- CC(C)[O-].CC(C)[O-].O=C1C=C([O-])C(=O)c2ccccc21.O=C1C=C([O-])C(=O)c2ccccc21.[Ti+4]: 0.0
- COc1cccc(/C=C/[N+](=O)[O-])c1: 0.0
- CNC(=S)NC(=O)c1c(Cl)n(C(=O)OC(C)(C)C)c2ccccc12: 0.0
- O=S(=O)(NCCCNc1nccc(-c2c(-c3ccc(F)c(O)c3)nc3sccn23)n1)c1ccc(F)cc1: 1.0

---

System: PC-3 prostate
test-name: NCI tumour cell line growth inhibition, 48 h
measurement-name: TGI

* CCOC(=O)NC1C2CC(=O)OC(O2)C1OC(C)=O (stereo not given) | > 100 µM
* CN(C)CCCNc1ccc2c(=O)n(CCN(C)C)c(=O)n3c4ccccc4c(=O)c1c23 | 1.81 µM
* C/C(=N\n1c(Cc2ccccc2)n[nH]c1=O)c1ccccc1 | > 100 µM
* C[C@]12CC[C@@H]3c4cc(-c5ccc(F)cc5)c(O)cc4CC[C@H]3[C@@H]1CC[C@@H]2O | 21.8 µM
* O=[N+]([O-])c1ccc(N=Nc2c(O)ccc3ccccc23)c([N+](=O)[O-])c1 | > 100 µM
* C[C@]12CC[C@H](OC3OC(CO)C(O)C(O)C3O)C[C@H]1CC[C@@H]1[C@@H]2CC[C@]2(C)[C@@H](C3=CCOC3=O)CC[C@]12O (stereo not given in full) | > 100 µM
* N#CC1C(=O)SC2c3ccccc3C(=O)c3ccccc3C12 (stereo not given) | > 10 µM
* CCCCCCCCCCCCN1[C@H]2CCC[C@H]2C(O)[C@@H]2CCC[C@@H]21 (stereo not given in full) | > 100 µM
* C=C1C(=O)OC2C1CCC(C)C1C=CC(=O)C12C (stereo not given) | 17.3 µM
* O=C(O)C1CCCCC1C(=O)Nn1cnnc1 (stereo not given) | > 100 µM

---

Test system: A549 NSCLC
test-name: NCI tumour cell line growth inhibition, 48 h
measurement-name: TGI

* C/C(=N\Nc1cc(C)c2ccccc2n1)c1ccccn1 | 1.17 µM
* Nc1c2c(c(O)c3c1=C(CO)C=N3)=NCCS2 | 0.219 µM
* CN(C)CC1CN=C(N)O1 (stereo unspecified) | > 100 µM
* COc1ccc(S(=O)(=O)NC(CCC(=O)NN)C(=O)NN)cc1 (stereo unspecified) | > 100 µM
* CC(C)(C)OCC1NC(=O)[C@@H]2Cc3c([nH]c4ccccc34)C(c3ccccc3)N2C1=O (stereo partly specified) | > 50 µM
* CCOC(=O)N1c2c(ccn2C)-c2ccn(C)c2N1C(=O)OCC | 39.4 µM
* COc1ccc(P2(=S)Oc3ccccc3-c3ccccc3O2)cc1 | > 54.9 µM
* CCOP(=O)(OCC)/C(=C/NC(=S)c1ccncc1)C(=O)OC | > 100 µM
* C=C(C#N)C1OCC2OC(C)(C)OC21 (stereo unspecified) | > 100 µM
* COc1cc(/C=C2\N=C(c3ccccc3)N(c3nc4cc(C)c(C)cc4s3)C2=O)ccc1O | > 100 µM
* COC(=O)C1=CSC2(S1)C(C(=O)OC)=CSc1c2ssc1=O (stereo unspecified) | 28.3 µM

---

Test system: ACHN renal
test-name: NCI tumour cell line growth inhibition, 48 h
Let's look at some compounds and their measured TGI.
measurement-name: TGI

• Cc1cccc(C)c1CO = > 100 µM
• COc1cc(N2CCC(N3CCN(C)CC3)CC2)ccc1Nc1ncnc(Nc2ccccc2S(=O)(=O)C(C)C)n1 = 14.8 µM
• CN1CC(=O)N(C)c2ncn(Cc3ccccc3)c2C1=O = > 100 µM
• O=C(c1c(F)c(F)c(F)c(F)c1F)N1CCN(C(=O)c2c(F)c(F)c(F)c(F)c2F)C1=S = 20.3 µM
• O=C(O)CCCSc1ccccc1 = > 100 µM
• CC(=O)O/C=C1/C[C@H]2[C@@H]3CCC4CC(C(C)=O)CC[C@]4(C)[C@H]3CC[C@]2(C)C1=O (stereo not given in full) = > 100 µM
• O=S(=O)(NCCCNc1nccc(-c2c(-c3ccc(F)c(O)c3)nc3sccn23)n1)c1ccc(F)cc1 = 8.86 µM
• C=C(CN1CCN(c2cccc(C(F)(F)F)n2)CC1)c1ccc(C(=O)Nc2ccccc2N)cc1 = > 100 µM
• COC(=O)C1=C(O)c2cc(-c3ccccc3)c(-c3ccccc3)c(C#N)c2NC(=O)C1 = > 100 µM
• O=C1CC(=O)N(C(=O)c2nn(-c3ccc(Cl)cc3)cc2O)N1 = > 100 µM
• NC[C@H]1Nc2ccccc2[C@@H](O)C1O (stereo not given in full) = > 100 µM
• Nc1nc(Cl)c(/C=N\O)c(NCC2(CO)CCC2)n1 = > 100 µM
• COc1ccc(S(=O)(=O)NC(CCC(=O)NN)C(=O)NN)cc1 (stereo not given) = > 100 µM
• CCOc1ccc(N=Cc2ccc3cc(C)ccc3n2)cc1 = > 100 µM
• CCN(Cc1ccccc1)c1ccc(CO)c(Cl)c1 = > 100 µM

---

Test system: NCI-H23 lung
test-name: NCI tumour cell line growth inhibition, 48 h
Let's look at some molecules and their measured TGI.
measurement-name: TGI

- CCOC(=O)Cc1ccc2c(c1O)C(=O)c1c(ccc(CC(=O)OCC)c1O)C2=O: > 100 µM
- Clc1nssc1=Nc1nonc1-c1ccccc1: 76.6 µM
- COc1cc2nc(-c3cccs3)nc(N3CCN(c4ccccc4C(F)(F)F)CC3)c2cc1OC: > 100 µM
- CCN1C(=O)C(=C/C=C/C=C2/N(C)c3ccccc3C2(C)C)C(=O)N(CC)C1=S: > 100 µM
- COc1cc2cc3c4cc(OC)c(OC)cc4cc[n+]3cc2cc1OC: > 100 µM
- CC1=C[C@]2(O)C(=O)[C@H](C)C[C@H]3[C@@H](CC[C@@](C)(O)/C=C\2C1=O)C3(C)C: 72.6 µM
- CO[C@@H]1C[C@H]2[C@@H]3CC[C@H]([C@@H](C)CO)[C@@]3(C)CC[C@@H]2[C@@]2(C)CC[C@H]3C[C@]312: > 100 µM
- O=[N+]([O-])c1ccc(N=Nc2c(O)ccc3ccccc23)c([N+](=O)[O-])c1: > 100 µM
- O=C1c2ccccc2CN1c1ccc(OCCN2CCCCC2)cc1: > 10 µM
